Biological target: murine PCSK9
Experiment: BIAcore SPR
reported_endpoint: Kd (nM)
The reply should be a number in nM, with the unit left off.

Before answering, review these 4 worked examples.
Request: Quick one: Kd for YW508.20.28b (antibody, V domains shown) VH: EVQLVESGGGLVQPGGSLRLSCAASGFTFTRHTINWVRQAPGKGLEWVARISPANGNTNYADSVKGRFTISADTSKNTAYLQMNSLRAEDTAVYYCARWIGSRELYIMDYWGQGTLVTVSS VL: DIQMTQSPSSLSASVGDRVTITCRASQDVSTAVAWYQQKPGKAPKLLIYSASFLYSGVPSRFSGSGSGTDFTLTISSLQPEDFATYYCQQSYRIQPTFGQGTKVEIK ?
Response: 0.323

Request: How about YW508.20.84 (antibody, V domains shown) VH: EVQLVESGGGLVQPGGSLRLSCAASGFTFTGYAIHWVRQAPGKGLEWVARISPANGNTNYADSVKGRFTISADTSKNTAYLQMNSLRAEDTAVYYCARWIGSRELYIMDYWGQGTLVTVSS VL: DIQMTQSPSSLSASVGDRVTITCRASQDVSTAVAWYQQKPGKAPKLLIYSASFLYSGVPSRFSGSGSGTDFTLTISSLQPEDFATYYCQQSYPAPSTFGQGTKVEIK ?
Response: 0.135

Request: Consider next the binder YW508.20.04b (antibody, V domains shown) VH: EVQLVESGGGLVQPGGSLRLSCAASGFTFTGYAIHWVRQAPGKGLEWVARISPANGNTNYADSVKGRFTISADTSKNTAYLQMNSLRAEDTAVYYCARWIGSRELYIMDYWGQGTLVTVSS VL: DIQMTQSPSSLSASVGDRVTITCRASQDVSTAVAWYQQKPGKAPKLLIYSASFLYSGVPSRFSGSGSGTDFTLTISSLQPEDFATYYCQQSYPAPATFGQGTKVEIK in the same way.
Response: 0.117

Request: And for YW508.20.33b (antibody, V domains shown) VH: EVQLVESGGGLVQPGGSLRLSCAASGFTFSSTAIHWVRQAPGKGLEWVARISPANGNTNYADSVKGRFTISADTSKNTAYLQMNSLRAEDTAVYYCARWIGSRELYIMDYWGQGTLVTVSS VL: DIQMTQSPSSLSASVGDRVTITCRASQDVSTAVAWYQQKPGKAPKLLIYSASFLYSGVPSRFSGSGSGTDFTLTISSLQPEDFATYYCQQAYPALHTFGQGTKVEIKR ?
Response: 0.0123

New cases:
Request: Return reported Kd; argument: YW508.20.06 (antibody, V domains shown) VH: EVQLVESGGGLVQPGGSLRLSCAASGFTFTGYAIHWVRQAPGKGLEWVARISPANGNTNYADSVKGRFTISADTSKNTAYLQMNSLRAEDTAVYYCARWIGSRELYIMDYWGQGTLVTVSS VL: DIQMTQSPSSLSASVGDRVTITCRASQDVSTAVAWYQQKPGKAPKLLIYSASFLYSGVPSRFSGSGSGTDFTLTISSLQPEDFATYYCQQSYPSPATFGQGTKVEIK
Response: 0.201
